- System: 786-0 renal
- assay.procedure: NCI tumour cell line growth inhibition, 48 h
Reported values of TGI for individual entries
quantity.name: TGI

[
  {
    "molecule": "O=C(c1cccc(O)c1O)c1cn(Cc2ccc(F)cc2)c2cccc(O)c12",
    "readout.value": "20.8 µM"
  },
  {
    "molecule": "COc1cc2c(cc1OCCCNC(=O)c1cc3ccccc3[nH]1)N=C[C@@H]1CCCN1C2=O",
    "readout.value": "41.4 µM"
  },
  {
    "molecule": "COC(=O)C1C2OC(C)(C)OC2CN1S(=O)(=O)c1ccc(C)cc1 (stereo not given)",
    "readout.value": "> 100 µM"
  },
  {
    "molecule": "CC1=NN(c2cccc(S(=O)(=O)O)c2)C2(C1)C(Cl)C(=O)N2c1nc2ccccc2s1 (stereo not given)",
    "readout.value": "11.7 µM"
  },
  {
    "molecule": "Cc1ccc(N(C(=O)CC(=O)NN)C(=O)c2ccccc2Cl)cc1",
    "readout.value": "> 100 µM"
  },
  {
    "molecule": "Fc1cc(F)c(COc2cc(Cn3cnc4c(Cl)nc(Cl)nc43)ccc2C23CC4CC(CC(C4)C2)C3)cc1F",
    "readout.value": "34.9 µM"
  },
  {
    "molecule": "COc1ccc(-c2cn3ccsc3n2)cc1",
    "readout.value": "> 100 µM"
  },
  {
    "molecule": "O=[N+]([O-])/C(C(Cl)=C(Cl)Cl)=C1\\Nc2ccc([N+](=O)[O-])cc2N1",
    "readout.value": "> 100 µM"
  },
  {
    "molecule": "O=c1cccccc1NCCCNc1cccccc1=O",
    "readout.value": "> 100 µM"
  },
  {
    "molecule": "CCOC(=O)C(Cc1ccc2ccccc2c1)(Cc1ccc2ccccc2c1)C(C)=O",
    "readout.value": "> 10 µM"
  }
]

* * *

- Test system: SR leukemia
- assay.procedure: NCI tumour cell line growth inhibition, 48 h; in the data active = GI50 below about 0.43 µM; inactive = the rest
Outcomes: true (1) for active, false (0) for inactive

[
  {
    "compound": "CC(=O)OC1CC(O)C23COC(O)C1(C)C2CC(O)C1(C)C3C(=O)C(O)C2(C)C(c3ccoc3)CC3OC321 (centres undefined)",
    "category.label": "true (1)"
  },
  {
    "compound": "CCN1C(=O)CNc2ncc(-c3ccc(-c4ncn[nH]4)nc3C)nc21",
    "category.label": "true (1)"
  },
  {
    "compound": "Cc1cn2c(/C=C3/C(=O)N(C)c4ccccc43)c(C)nc2s1",
    "category.label": "false (0)"
  },
  {
    "compound": "O=C(N/N=C/c1cccc(O)c1O)c1ccccc1",
    "category.label": "true (1)"
  },
  {
    "compound": "CC(C)c1ccc(C(=O)Nc2sc3c(c2C(N)=O)CCC(=O)C3)cc1",
    "category.label": "true (1)"
  },
  {
    "compound": "CCN(CC)c1sc(N(CC)CC)c2c1SSSSS2",
    "category.label": "true (1)"
  },
  {
    "compound": "CCCCN=C(N)c1ccc(OCCSCCOc2ccc(C(N)=NCCCC)cc2)cc1",
    "category.label": "false (0)"
  },
  {
    "compound": "Cc1ccc(/C(=C/C=C(C#N)C#N)Sc2ccc(Cl)cc2)cc1",
    "category.label": "false (0)"
  },
  {
    "compound": "CCOC(=O)c1c(CN2CCN(c3ccccc3)CC2)n(-c2ccccc2)c2cc(Br)c(O)cc12",
    "category.label": "false (0)"
  }
]
